Ref: patent US10882871B2

Would you kindly list Biodistribution Muscle for each of these molecules?
Tested on: PSMA-expressing LNCAP cancer xenografts
ASSAY_OVERVIEW: Biodistribution and tumor-to-background contrast ratios of 18F-labeled tracers
Format: in vivo, mouse (NODSCID 1L2RγKO male mice)
ASSAY_SETUP: 1 h
Write the number in % ID/g without appending the unit.

Short answer on PSMA-expressing LNCAP cancer xenografts for C[N+](C)(Cc1cn(CC(=O)NCCOCCOCCC(=O)N[C@@H](Cc2ccc3ccccc3c2)C(=O)NCCCC[C@H](NC(=O)N[C@@H](CCC(=O)O)C(=O)O)C(=O)O)nn1)C[B-](F)(F)[18F] [^18F-HTK01146] , Biodistribution Muscle: 0.05

Entry C[N+](C)(Cc1cn(Cc2ccc(C(=O)NCCCC[C@H](NC(=O)N[C@@H](CCC(=O)O)C(=O)O)C(=O)O)cc2)nn1)C[B-](F)(F)[18F] under PSMA-expressing LNCAP cancer xenografts had Biodistribution Muscle of 0.23

Param item: C[N+](C)(Cc1cn(CC(=O)NC[C@H]2CC[C@H](C(=O)N[C@@H](Cc3ccc4ccccc4c3)C(=O)NCCCC[C@H](NC(=O)N[C@@H](CCC(=O)O)C(=O)O)C(=O)O)CC2)nn1)C[B-](F)(F)[18F] [^18F-HTK01157] ; param system: PSMA-expressing LNCAP cancer xenografts; output Biodistribution Muscle: 0.36

Recorded Biodistribution Muscle for O=C(O)CC[C@H](NC(=O)N[C@@H](CCCCNC(=O)[C@H](Cc1ccc2ccccc2c1)NC(=O)[C@H]1CC[C@H](CNC(=O)Cn2cc(C[n+]3ccc([B-](F)(F)[18F])cc3)nn2)CC1)C(=O)O)C(=O)O [^18F-PSMA-617-PyrBF3] on PSMA-expressing LNCAP cancer xenografts was 0.18

Value sought: Biodistribution Muscle, system PSMA-expressing LNCAP cancer xenografts, item C[N+](C)(Cc1ccc(C(=O)NCCCC[C@H](NC(=O)N[C@@H](CCC(=O)O)C(=O)O)C(=O)O)cc1)C[B-](F)(F)[18F] . Result: 0.26

The measured Biodistribution Muscle that C[N+](C)(Cc1cn(Cc2ccc(C(=O)NCCCC[C@H](NC(=O)N[C@@H](CCC(=O)O)C(=O)O)C(=O)O)cn2)nn1)C[B-](F)(F)[18F] [^18F-HTK01130] showed for PSMA-expressing LNCAP cancer xenografts is 0.20

Readout Biodistribution Muscle for O=C(O)CC[C@H](NC(=O)N[C@@H](CCCCNC(=O)c1ccc(Cn2cc(C[n+]3ccc([B-](F)(F)[18F])cc3)nn2)nc1)C(=O)O)C(=O)O [^18F-PSMA PyrBF3] , test system PSMA-expressing LNCAP cancer xenografts, was 0.28

----------
Tested on: PSMA-expressing LNCAP cancer xenografts
ASSAY_OVERVIEW: Biodistribution and tumor-to-background contrast ratios of 18F-labeled tracers
Assay type: in vivo, mouse (NODSCID 1L2RγKO male mice)
ASSAY_SETUP: 1 h
ENDPOINT_NAME: Biodistribution Blood (% ID/g)
Numbers only here, please. The scale is % ID/g.

Value of Biodistribution Blood reported for the compound C[N+](C)(Cc1cn(CC(=O)NCCOCCOCCC(=O)N[C@@H](Cc2ccc3ccccc3c2)C(=O)NCCCC[C@H](NC(=O)N[C@@H](CCC(=O)O)C(=O)O)C(=O)O)nn1)C[B-](F)(F)[18F] [^18F-HTK01146] is 0.13

// recorded Biodistribution Blood for O=C(O)CC[C@H](NC(=O)N[C@@H](CCCCNC(=O)[C@H](Cc1ccc2ccccc2c1)NC(=O)[C@H]1CC[C@H](CNC(=O)Cn2cc(C[n+]3ccc([B-](F)(F)[18F])cc3)nn2)CC1)C(=O)O)C(=O)O [^18F-PSMA-617-PyrBF3] : 1.45

Sample C[N+](C)(Cc1cn(Cc2ccc(C(=O)NCCCC[C@H](NC(=O)N[C@@H](CCC(=O)O)C(=O)O)C(=O)O)cc2)nn1)C[B-](F)(F)[18F] ; Biodistribution Blood observed: 0.52
